- Tgt: T1, anti-CD28 Fab (SEQ ID NOs: 202, 203)
- T1 construct: biotinylated and captured on neutravidin coated plates in the phage ELISA
- Method Summary: phage binding ELISA on captured biotinylated Fab;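 also: clonal phage supernatants added to wells preincubated with CD28 antigen or blocking buffer only, bound phage detected by ELISA with horseradish-conjugated anti-M13 antibody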
Endpoint Label: Anti-CD28 Fab (SEQ ID NOs: 202, 203) signal

1. TCAAGATWSWPACF [Phage-892]: 2.23
2. TCAAGAHYLWPWCM [Phage-955]: 2.05
3. LCSAGAMYSWPTCL [Phage-909]: 2.39
4. TCSAGFHYEWPRCL [Phage-963]: 2.02
5. MCAAGANYPWPQCL [Phage-920]: 2.28
6. SCAAGASYAWPYCL [Phage-18]: 1.49
7. SCKPGVANYWPWCL [Phage-917]: 2.29
8. YCMGHSHEHIWKCL [Phage-23]: 0.87
